These data points were gathered from ChEMBL document CHEMBL1932986.

test system: Staphylococcus aureus; test: Antibacterial activity against Staphylococcus aureus NRRL B 313 at 50 mg/ml after 24 hrs by agar diffusion test; type: functional; settings: NRRL B 313, 24 h, read-out: DIZ
Measured attribute: zone of inhibition at 50000 µg/mL (mm)
Only the number, expressed in mm, is required.

Example compounds with recorded zone of inhibition at 50000 µg/mL:
CC[C@H](CO)N1Cc2ccccc2C1 25
CC[C@H](CO)NC(=O)c1ccccc1O 11
CC[C@H](CO)N1C(=O)C=C(C)C1=O 20
CC[C@H](CO)NC1c2ccccc2-c2ccccc21 12
CC[C@H](CO)Nc1cccc(Br)n1 14

# get_value(readout='zone of inhibition at 50000 µg/mL', item= CC[C@H](CO)NCc1ccc2ccccc2c1 )
19

# get_value(readout='zone of inhibition at 50000 µg/mL', item= CC[C@H](CO)NC(=O)/C=C/c1ccccc1 )
12

# get_value(readout='zone of inhibition at 50000 µg/mL', item= CC[C@H](CO)NCc1ccccc1O )
12
